meta.source: the DeepSol protein solubility set

- ASSAY INFO: soluble on expression in E. coli; label from the status in PepcDB or PDB records
MEASUREMENT LABEL: soluble on expression in E. coli

>>> result("MNKVLINDTTLRDGEQAAGVVFTLEEKVAIAKFLDTIGVPELEVGIPAMGEEEMRAICAISNLGLKANLLAWNRAVISDIKASVACGMERVHIAIPVSGIQIAAKFHGQWRVSLQRLKDCISFAVDQGLWVAVGGEDSSRADENFLLDVALYAQEWGASRFRFCDTVGVLDPFTTYGKVKLLVSALTIPVEVHTHNDFGMATANALAGIKAGASSVNTTVIGLGERAGNAALEEVVMAIKRIYGVDMGIDTPRLLELSQLVAAASGANVPPWKAIVGENTFAHESGIHAHGVLQNPDTYEPFAPEEVGWERRLVVGKHSGRHSVSNLLEQHGIFLNPEETQSVLDAVRQQSIKKKRSLTTEELLNLVKEQR")
"not soluble"
>>> result("MSLDIAYFTKTLEGLPLEKAAEITAGLGFDCADLLIRDGHAVSPDRPEGIANAVKFFAAAGVRTSMATIDSARPDDAASRLLSCCGEAGIGQIRLGFWRYDPSRRWRVQVDEARRDLDGFERLADRFGIKLTIQLHGGTLHSSGALAVQLLAGRDPIRLGAYPDPANQIIREGSEDWRLTLDILDPWFCCMGVKNSGWFPGAYGSHGQRAWHSDWYGLDEGMVPWNEIVPHLVATGFTGVLSMHSQYRVSREQALDKVRADLAHFRRLVAAAKEGHHHHHH")
"not soluble"
>>> result("FYHDYTVTQDELLKDSSDALKKEFLKILDKAIKRLILMANGDTIVIPLSGGYDSRAIATMLKKNGYENVILYTYGKPDSTEVRVAREVAKNLEFEWIFVEQNEDIVDPDYPERDFFLEFYKYAFNHVSTIHLQDFFVFKHLHDNSVIPKNSIIVPGHSGDFLGGSHLRKLPIPKSKRDVFNTILIKHYIVNEHIKLSPYVVKKINEYLNSFSEHTLPYSLDDNWNMKERQAKFIVNSNRTYEFFGYRHAIPLWDLELVEFFRRVPLEYKTKEVIYSDALRESVFKDFGVVLSQKDVANTMALEFYHRIFHSMEIFRHIRYFAEKN")
"not soluble"

----------
- ASSAY INFO: soluble on expression in E. coli; label from the status in PepcDB or PDB records
MEASUREMENT LABEL: soluble on expression in E. coli

>>> result("MAHHHHHHSLRVVSGEFGGRPLKTLDGKITRPTSDKVRGAIFNMIGPYFNGGRVLDLFAGSGGLAIEAVSRGMSAAVLVEKNRKAQAIIQDNIIMTKAENRFTLLKMEAERAIDCLTGRFDLVFLDPPYAKETIVATIEALAAKNLLSEQVMVVCETDKTVLLPKEIATLGIWKEKIYGISKVTVYVNEG")
"soluble"
>>> result("MGSDKIHHHHHHMSRSDARICAIHQPNFFPWLGYFDKIVRADIFVLLDDVQYQKTGGNWTNRVQMMIGQGPKWVTAPVDRSYSGVRQIREIRFSPVEREWREKLCSTITASYGRAAYFREVYPFIEPIIMNDSDFLSDYNSHAIAALCDYLEIESSKLVRSSQFNLQNNATDLLIDITKAVGAVRYLCGGGAQGYQEDEKFPRHGIQLIYQNFCHPIYTQANDAPFQPGLSIVDALMHCGRRGVIELLNRK")
"not soluble"
>>> result("CHETTTVALPESIGVGKGTTTLEDFENADAIFIIGQNPGSNSPRMMSELHAAAKRGASIISFNPLREKALVRFASPQDPRDMLSLHGVEISSQYHQVRIGGDMIALQGVCKAVIEADDVARREHLPRVLDVAFIEEHTHGFEQYADYCRQLPWDLIESHSGLTRQAIEDVAAVYRRSERVICCWGMGVTQHKRGGDAVQQIINLLLLRGNIGKLGAGACPVRGHSNVQGDRTMGIYEKAGEPFLASMSKVFGFEA")
"not soluble"
>>> result("STNPKPQRKTKRNTNRRPQDVKFPGGGQIVGGVYLLPRRGPRLG")
"soluble"
>>> result("MGSDKIHHHHHHMNLRGKMIVIKFGGSSLRSEFKSAVSLIKALSEEKDVVVVVSALKGITDLLEKYTDTFDSRYAVEVSKTYLEFGKRMGIDTSSLSPYLKQLFNPPDLPPQALRDYILSIGELLSAAMIAEKANGAVIFPWDLFVAHGSFGNGFIDIKKSKRNVKLVKEALESGKIPIIPGFIANLNGYRVTLGRGGSDYSAVALGVLLNSELVAIMSDVEGIFTADPKMIPYSLLIPYMSYDEILIASKYGMEAIQWKAAKLAKEYEALILFGRASDWRMGTVVSNSSSHMPLLSYDQGKLLVMNMDSEIPYEVVEEGEFWRVYRVPKRDSIKIIKELHRKIIYQENAQLLGRVKA")
"not soluble"
>>> result("MKLLLLLCISCIPLAYSHDGEPFDYLMFTTIYPTAVCRADDDSVPESCEIPSGTPQWSIHGLWPNFENGSYPQNCRGTPRHFDENLIKSIEDRLVVVWPNLYPKKTIQSFWKHEYDKHGTCAQSEKLFESELAYFTEVMKVFDSIDVAGGLKSVGPSEKPITSSDLKNALSGVTSGKTFQFHCLRDKKTKQFLLGDIRLCLNKDLTIRDCPTDGKHPNRVSRFERSIGRNRRGPPLPSFQPCPAEFIYLPEMSSISKSSDSTSPSIFGRIWSAIKNIGN")
"not soluble"
>>> result("MRLSFLTLQRRNAVGDALRHKSALRRILKTGRRASGTACDAERRTIVEKLPHDSLEHHHHHH")
"not soluble"
>>> result("KKTFLTVRGNLTFNKDKIIENDEPPVDYPWMETRGTNVNATWGFIADGLFTSQAEIEDHATQFGTVHVGDIKYRDLNGDGVIDNYDKTVIGRGDVPRIYYGFGADLQIGDFSISALFQGTGQADRYLDGICIKPFWDDEGRDNVFANIHDRWSPDDPTNQDVFYPRMYVGSDANTNNVQKSSWWVKDVSFLRLKQLNISYNIPKKLLDRCFLKSASVYLMGTNLLTFSNFKLWDPELNTSNGTAYPNVSSYSVGVKFSF")
"not soluble"
>>> result("MTSTGPETSETPGATTQRHGFGIDVGGSGIKGGIVDLDTGQLIGDRIKLLTPQPATPLAVAKTIAEVVNGFGWRGPLGVTYPGVVTHGVVRTAANVDKSWIGTNARDTIGAELGGQQVTILNDADAAGLAETRYGAGKNNPGLVVLLTFGTGIGSAVIHNGTLIPNTEFGHLEVGGKEAEERAASSVKEKNDWTYPKWAKQVIRVLIAIENAIWPDLFIAGGGISRKADKWVPLLENRTPVVPAALQNTAGIVGAAMASVADTTH")
"not soluble"
>>> result("MHHHHHHSSGVDLGTENLYFQSMMQKLVVTRLSPNFREAVTLSRDCPVPLPGDGDLLVRNRFVGVNASDINYSAGRYDPSVKPPFDIGFEGIGEVVALGLSASARYTVGQAVAYMAPGSFAEYTVVPASIATPVPSVKPEYLTLLVSGTTAYISLKELGGLSEGKKVLVTAAAGGTGQFAMQLSKKAKCHVIGTCSSDEKSAFLKSLGCDRPINYKTEPVGTVLKQEYPEGVDVVYESVGGAMFDLAVDALATKGRLIVIGFISGYQTPTGLSPVKAGTLPAKLLKKSASVQGFFLNHYLSKYQAAMSHLLEMCVSGDLVCEVDLGDLSPEGRFTGLESIFRAVNYMYMGKNTGKIVVELPH")
"soluble"
>>> result("MSLQRARCYLIGETAVVLELEPPVTLASQKRIWRLAQRLVDMPNVVEAIPGMNNITVILRNPESLALDAIERLQRWWEESEALEPESRFIEIPVVYGGAGGPDLAVVAAHCGLSEKQVVELHSSVEYVVWFLGFQPGFPYLGSLPEQLHTPRRAEPRLLVPAGSVGIGGPQTGVYPLATPGGWQLIGHTSLSLFDPARDEPILLRPGDSVRFVPQKEGVCEGHHHHHH")
"not soluble"
>>> result("MAHHHHHHMNIPNPRVFLDIAIGGRNAGRMIFELFMDKLPITCENFRCLCTGETGLGYYLKPRWYKNSPIHRIVTDFMFQGGDFNFGNGYGGESIYGQYFRNEKFIYKHSKRGILSMCQTRIKHTNNSQFFVTFKSCPWLDKRHVVLGHLEYGFDTLSFIEEQGTLIGKPKKQVFIYNCGVIPLDKIKYKSADNSDDDYIIPDIEKPLLEKDISINENSDFNELRNMYKYNKHF")
"not soluble"

----------
- ASSAY INFO: soluble on expression in E. coli; label from the status in PepcDB or PDB records
MEASUREMENT LABEL: soluble on expression in E. coli

>>> result("MQPQKNVTNKIAIHATTATVWDALVNPAKTKVYMFGCETVSDWKVGSELLWRGQHEGEDMVFVKGKILAIKPNKLLTYTVIDPFASYPDIPENYLNVTYKLEEQGPDTILTVTQDGFESAADGEKRYQDVNNKGEGWNPILVQIKALVESIQNLEHHHHHH")
"soluble"
>>> result("MQWVKQLNVVFCTMLFSFSSYANLSDFKVATWNLQGSSAVNESKWNINVRQLLSGEQGADILMVQEAGSLPSSAVRTSRVIQHGGTPIEEYTWNLGTRSRPNMVYIYYSRLDVGANRVNLAIVSRRQADEAFIVHSDSSVLQSRPAVGIRIGTDVFFTVHALATGGSDAVSLIRNIFTTFTSSPSSPERRGYSWMVVGDFNRAPVNLEAALRQEPAVSENTIIIAPTEPTHRSGNILDYAILHDAHLPRREQARERIGASLMLNQLRSQITSDHFPVSFVHDR")
"soluble"
>>> result("MIGLFNDCFPPIMDGVSLTTQNYAYWLHRKAGNVCVVTPKSPDARDAEEYPVYRYSSVPIPMRKPYRLGFPRIDWPFHERISRLSFELVHAHCPFSSGALAMQIAREQHVPIVATFHSKYRADFERAIPSRLLVNYLIRKVIRFYEAADEVWIPQAAVEETLREYGYKGRIEVVDNGNDFAGTPFLQSVRQEARRTLGIRSGEFMFLFVGQHIWEKNLGFLLDSLVRLSDIPFRMYFVGSGYASHELKQKVVELGLASKVSFVGSIVEREILKRYYVAADLFLFPSLYDNAPLVIREAAALGTPSVLIRDSTASEIISDSVNGFLSPNSTEAYSNRIREILCSTAIIKQVGEEASRTIARSWEDVAGEVYDRYNRLIKRNGNKLEHHHHHH")
"soluble"
